Each entry below lists one item and its recorded abundance fitness value.
B1: Calcium-binding protein 2, residues 155 to 219; numbered along this chain, Q9NPB3 (parent)
chain: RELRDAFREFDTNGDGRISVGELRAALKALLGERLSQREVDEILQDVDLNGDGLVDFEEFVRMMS

- Variants of: B1
- Assay Remarks: abundance fitness (aPCA) (normalised: wild type 0, dead -1); higher = more abundant; growth selection in yeast, the domain comes from the species named
- Conditions Used: Homo sapiens
Give a plain numeric answer without units written out.

# annotated cases, reported abundance fitness shown
{"Variant Descriptor": "K28I", "abundance fitness": 0.013}
{"Variant Descriptor": "I43Q", "abundance fitness": 0.099}
{"Variant Descriptor": "A26S", "abundance fitness": -0.214}
{"Variant Descriptor": "G51P", "abundance fitness": 0.151}
{"Variant Descriptor": "I43M", "abundance fitness": -0.017}
{"Variant Descriptor": "Q37L", "abundance fitness": -0.017}

Look at this variant and give its reported abundance fitness. `D5G`
-0.318

Requested field: abundance fitness. Item: `R1K`
0.12

Report abundance fitness for `L27F` please.
0.077

Could you share which abundance fitness value was measured for `N50T` ?
-0.022

Look up abundance fitness for this variant: `L31H`
-0.021

// abundance fitness lookup, key: `L54K`
-0.207

Endpoint output: abundance fitness of `V61P` . Value?
-0.445

Using the record for `R62C` , report its abundance fitness.
-0.124

Fill in the blank: the reported abundance fitness of `L35H` is ____.
0.061

What value of measured abundance fitness is listed for `R4Q` ?
-0.21

Entry under review: `L31Y` . Reported abundance fitness?
-0.064

Sample `G16D` — what was its abundance fitness?
0.023

Dear colleague, I am looking for the recorded abundance fitness of the following variant: `M63C`
-0.058

What does the data say about its abundance fitness? Entry: `D52C`
-0.124

abundance fitness lookup needed for `E22I` , thanks.
-0.729

What abundance fitness value was documented for this variant, `Q37T` ?
0.021

Give its abundance fitness value. Item: `L3P`
-0.441

// query abundance fitness value for entry `M64T`
0.015

For the variant `R8D` , what abundance fitness is on record?
0.045

May I ask what abundance fitness has been recorded for `D46N` ?
-0.2

Please report the recorded abundance fitness for `Q37N` .
0.221

Please report the recorded abundance fitness for `F7G` .
-1.03

So what's the measured abundance fitness for this one? `L35R`
0.096

Query: abundance fitness; subject: `L35G`
0.088
